test system: L1210; experiment: Antitumor activity against mouse L1210 cells […] in ip dosed C3H X DBA2 F1 hybrid mouse on day 0 and dosed once daily on days 1 to 5 assessed as increase in life span relative to control; format: functional
// NB: equality with 6 mg/kg counts as rule not met; only D40 strictly below is rule met

molecule	discrete_label
C[n+]1ccc(Nc2ccc(NC(=O)Nc3ccc(Nc4cc[n+](C)c5ccc(N)cc45)cc3)cc2)cc1.Cc1ccc(S(=O)(=O)[O-])cc1.Cc1ccc(S(=O)(=O)[O-])cc1	rule met

hey, is D40 for CCC[n+]1cccc2cc(NC(=O)c3ccc(C(=O)Nc4ccc(NC(=O)c5ccc6c(ccc[n+]6CCC)c5)cc4)cc3)ccc21.Cc1ccc(S(=O)(=O)[O-])cc1.Cc1ccc(S(=O)(=O)[O-])cc1 lower than 6 mg/kg or not?
rule not met

D40 under 6 mg/kg? Item: CC[n+]1cccc2cc(NC(=O)c3ccc(-c4ccc(-c5ccc(-c6ccc(C(=O)Nc7ccc8c(ccc[n+]8CC)c7)cc6)cc5)cc4)cc3)ccc21.Cc1ccc(S(=O)(=O)[O-])cc1.Cc1ccc(S(=O)(=O)[O-])cc1
rule not met

Given the entry C/C(=N\NC(=N)N)c1ccc(NC(=O)c2ccc(C(=O)Nc3ccc(C(=O)Nc4ccc[n+](C)c4)cc3)cc2)cc1.Cc1ccc(S(=O)(=O)O)cc1.Cc1ccc(S(=O)(=O)[O-])cc1 , would its reported D40 be below 6 mg/kg?
rule not met

====

test system: L1210; assay: Antitumor activity against mouse L1210 cells […] in ip dosed C3H X DBA2 F1 hybrid mouse on day 0 and dosed once daily on days 1 to 5 assessed as increase in life span relative to control; type: functional
Mark Yes only when D40 stays strictly below 3 mg/kg. Values equal to the cut-off are No.

In the record for C[n+]1cccc(NC(=O)c2ccc(NC(=O)c3ccc(C(=O)Nc4ccc(C(=O)Nc5ccc[n+](C)c5)cc4Cl)cc3)c(Cl)c2)c1.Cc1ccc(S(=O)(=O)[O-])cc1.Cc1ccc(S(=O)(=O)[O-])cc1 , is D40 less than 3 mg/kg?
No

Please determine if CC[n+]1ccc(-c2ccc(NC(=O)c3ccc(Nc4cc[n+](CC)c5ccccc45)cc3)cc2)cc1.Cc1ccc(S(=O)(=O)[O-])cc1.Cc1ccc(S(=O)(=O)[O-])cc1 is below 3 mg/kg in terms of D40.
Yes

Below 3 mg/kg on D40? Entry C[n+]1ccc(Nc2ccc(NC(=O)/C=C/c3ccc(C(=O)Nc4ccc(Nc5cc[n+](C)cc5)c(N)c4)cc3)cc2N)cc1.Cc1ccc(S(=O)(=O)[O-])cc1.Cc1ccc(S(=O)(=O)[O-])cc1
Yes

Lab note: confirm whether the reported D40 for this compound is below 3 mg/kg, equality not counting. compound: Cc1cc(C(=O)Nc2ccc[n+](C)c2)ccc1NC(=O)c1ccc(C(=O)Nc2ccc(C(=O)Nc3ccc[n+](C)c3)cc2C)cc1.Cc1ccc(S(=O)(=O)[O-])cc1.Cc1ccc(S(=O)(=O)[O-])cc1
No

Does this compound meet the criterion D40 < 3 mg/kg? CC[n+]1cccc2cc(NC(=O)COc3ccc(C(=O)Nc4ccc5c(ccc[n+]5CC)c4)cc3)ccc21.Cc1ccc(S(=O)(=O)[O-])cc1.Cc1ccc(S(=O)(=O)[O-])cc1
No

====

test system: Mus musculus; experiment: Toxicity in ip dosed C3H X DBA2 F1 hybrid mouse […] with mouse L1210 cells on day 0 and dosed once daily on days 1 to 5 measured after 50 days; format: organism-based; details: in vivo, 1200 h
# maps each entry to its LD10
Respond with the bare value in mg/kg.

Take a look at these entries with their results.
molecule	LD10 (mg/kg)
C[n+]1cccc2cc(NC(=O)c3ccc(-c4ccc(-c5ccc(-c6ccc(C(=O)Nc7ccc8c(ccc[n+]8C)c7)cc6)cc5)cc4)cc3)ccc21.Cc1ccc(S(=O)(=O)[O-])cc1.Cc1ccc(S(=O)(=O)[O-])cc1	65
C[n+]1ccc(Nc2ccc(NC(=O)c3ccc(C(=O)Nc4ccc(Nc5cc[n+](C)c(N)n5)cc4)cc3)cc2)nc1N.Cc1ccc(S(=O)(=O)[O-])cc1.Cc1ccc(S(=O)(=O)[O-])cc1	75
CCC[n+]1cccc(NC(=O)c2ccc(NC(=O)/C=C/c3ccc(C(=O)Nc4ccc(C(=O)Nc5ccc[n+](CCC)c5)cc4)cc3)cc2)c1.Cc1ccc(S(=O)(=O)[O-])cc1.Cc1ccc(S(=O)(=O)[O-])cc1	46

Recorded LD10 (molecule COc1cc(NC(=O)c2ccc(Nc3cc[n+](C)cc3)cc2)ccc1Nc1cc[n+](C)c2cc(N)ccc12.[Br-].[Br-] ): 14

Per the records, this molecule ( C/C(=N\NC(=N)N)c1ccc(NC(=O)Nc2ccc(Nc3c4ccccc4[n+](C)c4cc(N)ccc34)cc2)cc1.Cl.[Cl-] ) has LD10 equal to 22

// CCCCC[n+]1cccc2cc(NC(=O)c3ccc(C(=O)Nc4ccc5c(ccc[n+]5CCCCC)c4)c(N)c3)ccc21.Cc1ccc(S(=O)(=O)[O-])cc1.Cc1ccc(S(=O)(=O)[O-])cc1 : LD10 value = 16

Entry CCC[n+]1ccc(Nc2ccc(NC(=O)/C=C/c3ccc(/C=C/C(=O)Nc4ccc(Nc5cc[n+](CCC)cc5)cc4)cc3)cc2)cc1.[Br-].[Br-] , LD10 reported as 25

# LD10 (molecule: CCC[n+]1cccc2cc(NC(=O)c3ccc(-c4ccc(-c5ccc(-c6ccc(C(=O)Nc7ccc8c(ccc[n+]8CCC)c7)cc6)cc5)cc4)cc3)ccc21.Cc1ccc(S(=O)(=O)[O-])cc1.Cc1ccc(S(=O)(=O)[O-])cc1 ) is 45

====

test: Displacement of ethidium from poly[d(G-C)]-poly[d(G-C)] DNA (unknown origin) by fluorimetric method
Definition: the class of an entry is the range in bucket A: < 0.8 µM; bucket B: ≥ 0.8 µM and < 3 µM; bucket C: ≥ 3 µM that contains its C50.

Please review the entries below; each comes with its answer.
molecule	discrete_label
C[n+]1cccc(NC(=O)c2ccc(NC(=O)c3ccc(C(=O)Nc4ccc(C(=O)Nc5ccc[n+](C)c5)cc4)c4ccccc34)cc2)c1.Cc1ccc(S(=O)(=O)[O-])cc1.Cc1ccc(S(=O)(=O)[O-])cc1	bucket B
Cc1ccc(S(=O)(=O)[O-])cc1.Cc1ccc(S(=O)(=O)[O-])cc1.Cc1ccc2c(c1)c(Nc1ccc(C(=O)Nc3ccc(Nc4cc[n+](C)cc4)cc3)cc1)cc[n+]2C	bucket B
Cc1cc(C(=O)Nc2ccc(C(=O)Nc3ccc[n+](C)c3)cc2)c(C)cc1C(=O)Nc1ccc(C(=O)Nc2ccc[n+](C)c2)cc1.Cc1ccc(S(=O)(=O)[O-])cc1.Cc1ccc(S(=O)(=O)[O-])cc1	bucket C

Band for the recorded C50 of Br.C/C(=N\NC(=N)N)c1ccc(NC(=O)c2ccc(Nc3cc[n+](C)c4ccc(N)cc34)cc2)cc1.[Br-] ?
bucket A

Just checking, what class would you give C[n+]1cccc(NC(=O)c2ccc(NC(=O)c3ccc(C(=O)Nc4ccc(C(=O)Nc5ccc[n+](C)c5)cc4)c(Cl)c3)cc2)c1.Cc1ccc(S(=O)(=O)[O-])cc1.Cc1ccc(S(=O)(=O)[O-])cc1 here?
bucket B

The entry to classify is C(=C\c1ccc(-[n+]2ccccc2)cc1)/c1ccc(/C=C/c2ccc(-[n+]3ccccc3)cc2)cc1.Cc1ccc(S(=O)(=O)[O-])cc1.Cc1ccc(S(=O)(=O)[O-])cc1 ; which class holds it?
bucket B

// bin(item) where item = C[n+]1cccc(NC(=O)c2ccc(NC(=O)c3ccc(Nc4c5ccccc5[n+](C)c5ccc(N)cc45)cc3)cc2)c1.[Cl-].[Cl-]
bucket A

Where would CCCC[n+]1ccc(Nc2ccc(NC(=O)c3ccc(Nc4cc[n+](CCCC)c5ccccc45)cc3)cc2)cc1.[Br-].[Br-] land among the classes by reported C50?
bucket B

====

species: Bos taurus; assay: Displacement of ethidium from calf thymus DNA by fluorimetric method
parameter: C50

molecule	C50
C[n+]1ccc(Nc2ccc(NC(=O)/C=C/c3ccc(Nc4cc[n+](C)c5ccc(N)cc45)cc3)cc2)cc1.Cc1ccc(S(=O)(=O)[O-])cc1.Cc1ccc(S(=O)(=O)[O-])cc1	0.46 µM
CC[n+]1ccc(Nc2ccc(NC(=O)c3ccc(Nc4cc[n+](CC)c5cc(N)ccc45)cc3N)cc2)cc1.[Br-].[Br-]	0.52 µM
Cc1cc(Nc2ccc(NC(=O)c3ccc(C(=O)Nc4ccc(C(=O)Nc5ccc[n+](C)c5)cc4)cc3)cc2)nc(N)[n+]1C.[I-].[I-]	0.4 µM
Cn1cc(NC(=O)c2cc(NC(=O)c3cc(NC=O)cn3C)cn2C)cc1C(=O)NCCC(=N)N	0.68 µM
Cc1cc(C(=O)Nc2ccc[n+](C)c2)ccc1NC(=O)c1ccc(C(=O)Nc2ccc(C(=O)Nc3ccc[n+](C)c3)cc2C)cc1.Cc1ccc(S(=O)(=O)[O-])cc1.Cc1ccc(S(=O)(=O)[O-])cc1	11.7 µM

The reported C50 of the compound C[n+]1ccc(Nc2ccc(S(=O)(=O)Nc3ccc(Nc4c5ccccc5[n+](C)c5cc(N)ccc45)cc3)cc2)cc1.[O-][Cl+3]([O-])([O-])[O-].[O-][Cl+3]([O-])([O-])[O-] was 0.1 µM

Consider C[n+]1cccc(-c2ccc(NC(=O)/C=C/c3ccc(C(=O)Nc4ccc(-c5ccc(-c6ccc(-c7ccc[n+](C)c7)cc6)cc5)cc4)cc3)cc2)c1.Cc1ccc(S(=O)(=O)[O-])cc1.Cc1ccc(S(=O)(=O)[O-])cc1 . Its measured C50 is 0.3 µM

Short answer for C(=C\c1ccc(-[n+]2ccccc2)cc1)/c1ccc(/C=C/c2ccc(-[n+]3ccccc3)cc2)cc1.Cc1ccc(S(=O)(=O)[O-])cc1.Cc1ccc(S(=O)(=O)[O-])cc1 : C50 was 0.76 µM

Data point: C[n+]1cccc(NC(=O)c2ccc(NC(=O)c3ccc(C(=O)Nc4ccc(NC(=N)NC(=N)N)cc4)cc3)cc2)c1.I.[I-] ; C50 = 1.14 µM

For C[n+]1cccc(NC(=O)c2ccc(NC(=O)c3ccc(C(=O)Nc4ccc(NC(=N)N)cc4)cc3)cc2)c1.I.[I-] the compound record lists C50 as 1.38 µM

Short answer for C[n+]1ccc(Nc2ccc(NC(=O)/C=C/c3ccc(Nc4cc[n+](C)c5ccccc45)cc3)cc2)cc1.[Br-].[Br-] : C50 was 0.38 µM

Reported C50 for C[n+]1ccc(Nc2ccc(NC(=O)c3ccc(Nc4cc[n+](C)c5cc([N+](=O)[O-])ccc45)cc3)cc2)cc1.Cc1ccc(S(=O)(=O)[O-])cc1.Cc1ccc(S(=O)(=O)[O-])cc1 was 0.69 µM

// data source = ChEMBL document CHEMBL3228010
